Target: D(3) dopamine receptor (Homo sapiens)
Sequence (P35462 whole entry): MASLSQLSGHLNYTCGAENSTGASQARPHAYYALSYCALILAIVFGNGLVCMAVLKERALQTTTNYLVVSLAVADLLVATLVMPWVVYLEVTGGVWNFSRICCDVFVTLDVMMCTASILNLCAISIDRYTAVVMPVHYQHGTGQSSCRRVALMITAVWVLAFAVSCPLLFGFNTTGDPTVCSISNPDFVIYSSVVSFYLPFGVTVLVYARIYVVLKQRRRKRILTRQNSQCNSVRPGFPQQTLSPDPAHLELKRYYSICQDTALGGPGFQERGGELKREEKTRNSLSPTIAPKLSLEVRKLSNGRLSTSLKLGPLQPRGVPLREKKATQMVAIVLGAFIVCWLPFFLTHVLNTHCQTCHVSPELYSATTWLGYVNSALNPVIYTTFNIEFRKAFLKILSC
Assay: DRUGMATRIX: Dopamine D3 radioligand binding (ligand: [3H] Spiperone)
Type: cell membranes, CHO, Membrane
Details: cho
quantityMeasured: IC50

chemicalstring=COc1ccc(CN2CCNCC2)c(OC)c1OC quantitymeasured=IC50 result="Not Active"
chemicalstring=CC[C@H](C)C(=O)O[C@H]1C[C@H](O)C=C2C=C[C@H](C)[C@H](CC[C@@H](O)C[C@@H](O)CC(=O)O)[C@H]21 quantitymeasured=IC50 result="Not Active"
chemicalstring=CC[C@H]1OC(=O)[C@H](C)[C@@H](O[C@H]2C[C@@](C)(OC)[C@@H](O)[C@H](C)O2)[C@H](C)[C@@H](O[C@@H]2O[C@H](C)C[C@H](N(C)C)[C@H]2O)[C@](C)(OC)C[C@@H](C)C(=O)[C@H](C)[C@@H](O)[C@]1(C)O quantitymeasured=IC50 result="Not Active"

The values you see were collected from ChEMBL document CHEMBL1909046.
